- PROTOCOL: Inhibition of reverse transcriptase L100I mutant in HIV-1 infected in human MT4 cells assessed as reduction in virus-induced cytopathic effect incubated for 5 days by MTT assay
Entries whose EC50 is below 40 nM take MET; entries at or above 40 nM take NOT MET.

Cc1cc(/C=C/C#N)cc(C)c1Oc1nc(Nc2ccc(N3CCN(S(C)(=O)=O)CC3)cc2)nc2ccsc12    NOT MET

[in] Strictly below 40 nM: is that where EC50 of Cc1cc(/C=C/C#N)cc(C)c1Oc1nc(Nc2ccc(N3CCN(S(N)(=O)=O)CC3)cc2)nc2sccc12 sits?
[out] NOT MET

[in] Does Cc1cc(/C=C/C#N)cc(C)c1Oc1nc(Nc2ccc(CN3CCN(S(N)(=O)=O)CC3)cc2)nc2sccc12 have EC50 strictly under 40 nM?
[out] MET

[in] Is EC50 strictly under 40 nM for the entry Cc1cc(/C=C/C#N)cc(C)c1Oc1nc(Nc2ccc(CN3CCN(S(N)(=O)=O)CC3)cc2)nc2ccsc12 ?
[out] NOT MET

[in] Quick check: does Cc1cc(/C=C/C#N)cc(C)c1Oc1nc(Nc2ccc(N3CCN(S(C)(=O)=O)CC3)cc2)nc2sccc12 have EC50 under 40 nM?
[out] NOT MET

----------
Catalogue of EC50 values
- PROTOCOL: Inhibition of reverse transcriptase Y188L mutant in HIV-1 infected in human MT4 cells assessed as reduction in virus-induced cytopathic effect incubated for 5 days by MTT assay
I only need the number, in µM, no unit after it.

Cc1cc(/C=C/C#N)cc(C)c1Oc1nc(Nc2ccc(N3CCN(S(N)(=O)=O)CC3)cc2)nc2ccsc12    23.1
Cc1cc(/C=C/C#N)cc(C)c1Oc1nc(Nc2ccc(CN3CCN(S(N)(=O)=O)CC3)cc2)nc2sccc12    0.877
Cc1cc(/C=C/C#N)cc(C)c1Oc1nc(Nc2ccc(N3CCN(S(C)(=O)=O)CC3)cc2)nc2sccc12    68.4

Moving on to another molecule below.
[in] GET /values?readout=EC50&item= Cc1cc(/C=C/C#N)cc(C)c1Oc1nc(Nc2ccc(N3CCCC(NS(N)(=O)=O)C3)cc2)nc2sccc12 (stereo not given)
[out] 88.2
